Molecular target: UniProt Q92918
Assay: FRET one step binding assay (tracer displacement)
Details: 1 μM compound
Structures can show the parent of a compound that is named as a salt.
Entry flag: met if inhibition at 1 µM reaches 80%; not met if it does not.

# COMPOUND, TEST SYSTEM, CLASS
records = [
    ("Cn1nc(Nc2ncc(Cl)c(Nc3ccc(OS(=O)(=O)F)cc3P(C)(C)=O)n2)c2c1CNC2 [Example 41, hydrochloride]", "UniProt Q92918", "met"),
    ("COc1cc2c(cc1Nc1ncc(Cl)c(N=S(C)(=O)c3ccccc3P(C)(C)=O)n1)CN(C)CC2 (stereo not drawn)", "UniProt Q92918", "met"),
    ("COc1cc2c(cc1Nc1ncc(Cl)c(Nc3ccc(OS(=O)(=O)F)cc3P(C)(C)=O)n1)C(C)(C)N(C)CC2 [Example 11, dihydrochloride]", "UniProt Q92918", "not met"),
    ("COc1cc2c(cc1Nc1ncc(Cl)c(Nc3ccc(OS(=O)(=O)F)cc3P(C)(C)=O)n1)CN(C)C(C)C2 (single isomer, unassigned; isomer 1)", "UniProt Q92918", "met"),
    ("COc1cc2c(cc1Nc1ncc(Cl)c(Nc3ccc(OS(=O)(=O)F)cc3P(C)(C)=O)n1)COCC2 [Example 28, hydrochloride]", "UniProt Q92918", "not met"),
    ("CN1CCc2cc(F)c(Nc3ncc(Cl)c(Nc4ccc(OS(=O)(=O)F)cc4P(C)(C)=O)n3)cc2C1 [Example 26, dihydrochloride]", "UniProt Q92918", "not met"),
]

====

Target: MAP4K-1 enzyme (Homo sapiens, UniProt Q92918)
Sequence (Q92918 whole entry): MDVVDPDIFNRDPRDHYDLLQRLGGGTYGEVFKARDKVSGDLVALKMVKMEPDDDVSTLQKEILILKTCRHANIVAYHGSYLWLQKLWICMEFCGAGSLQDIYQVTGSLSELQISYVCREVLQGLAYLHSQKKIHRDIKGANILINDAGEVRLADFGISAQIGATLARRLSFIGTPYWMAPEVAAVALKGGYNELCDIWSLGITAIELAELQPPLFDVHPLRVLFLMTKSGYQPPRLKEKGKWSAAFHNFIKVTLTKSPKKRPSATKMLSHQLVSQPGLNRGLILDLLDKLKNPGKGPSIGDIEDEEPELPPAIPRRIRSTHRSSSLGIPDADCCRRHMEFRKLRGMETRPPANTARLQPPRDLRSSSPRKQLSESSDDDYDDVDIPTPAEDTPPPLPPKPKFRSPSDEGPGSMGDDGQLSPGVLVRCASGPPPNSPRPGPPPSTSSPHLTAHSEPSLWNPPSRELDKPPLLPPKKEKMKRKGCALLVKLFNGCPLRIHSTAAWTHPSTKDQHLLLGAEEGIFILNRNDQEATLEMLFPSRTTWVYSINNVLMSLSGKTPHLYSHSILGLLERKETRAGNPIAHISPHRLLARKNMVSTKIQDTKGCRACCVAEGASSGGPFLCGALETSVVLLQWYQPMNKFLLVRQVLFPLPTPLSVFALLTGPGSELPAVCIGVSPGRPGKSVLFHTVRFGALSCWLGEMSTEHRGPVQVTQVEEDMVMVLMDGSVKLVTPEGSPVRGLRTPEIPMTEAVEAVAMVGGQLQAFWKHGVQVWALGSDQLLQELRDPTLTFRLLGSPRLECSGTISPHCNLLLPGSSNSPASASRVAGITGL
Experiment: FRET one step binding assay (tracer displacement)
Conditions: 10 μM compound
Counter-ions that a name gives are not always drawn.
Class t: inhibition at 10 µM at least 90%. Class f: inhibition at 10 µM below 90%.

# COMPOUND, TEST SYSTEM, CLASS
data = [
    ("COc1cc2c(cc1Nc1ncc(Cl)c(Nc3c(F)cc(OS(=O)(=O)F)cc3P(C)(C)=O)n1)CN(C)CC2 [Example 14, dihydrochloride]", "MAP4K-1 enzyme (Homo sapiens, UniProt Q92918)", "t"),
    ("COc1cc2c(cc1Nc1ncc(Cl)c(Oc3ccccc3P(C)(C)=O)n1)CN(C)CC2", "MAP4K-1 enzyme (Homo sapiens, UniProt Q92918)", "f"),
    ("COCCOc1ccc(Nc2nc(Nc3cc4c(cc3OC)CCN(C)C4)ncc2Cl)c(P(C)(C)=O)c1", "MAP4K-1 enzyme (Homo sapiens, UniProt Q92918)", "t"),
    ("Cn1nc(Nc2ncc(Cl)c(Nc3ccc(OS(=O)(=O)F)cc3P(C)(C)=O)n2)c2c1CNC2 [Example 41, hydrochloride]", "MAP4K-1 enzyme (Homo sapiens, UniProt Q92918)", "f"),
    ("COc1cc2c(cc1Nc1ncc(Cl)c(Nc3ccc(OS(=O)(=O)F)cc3P(C)(C)=O)n1)C(C)N(C)CC2 (racemic) [Example 12, dihydrochloride]", "MAP4K-1 enzyme (Homo sapiens, UniProt Q92918)", "f"),
    ("CN1CCc2cc(F)c(Nc3ncc(Cl)c(Nc4ccc(OS(=O)(=O)F)cc4P(C)(C)=O)n3)cc2C1 [Example 26, dihydrochloride]", "MAP4K-1 enzyme (Homo sapiens, UniProt Q92918)", "f"),
    ("COc1cc2c(cc1Nc1ncc(Cl)c(Nc3ccc(O)cc3P(C)(C)=O)n1)CN(C)CC2 [Example 1, dihydrochloride]", "MAP4K-1 enzyme (Homo sapiens, UniProt Q92918)", "f"),
    ("COc1cc2c(cc1Nc1ncc(Cl)c(Oc3ccc(OS(=O)(=O)F)cc3P(C)(C)=O)n1)CN(C)CC2 [Example 60, dihydrochloride]", "MAP4K-1 enzyme (Homo sapiens, UniProt Q92918)", "f"),
    ("COc1cc2c(cc1Nc1ncc(Cl)c(Nc3ccc(O[C@H]4CCOC4)cc3P(C)(C)=O)n1)CN(C)CC2", "MAP4K-1 enzyme (Homo sapiens, UniProt Q92918)", "f"),
    ("[2H]C([2H])([2H])Oc1cc2c(cc1Nc1ncc(Cl)c(Nc3ccc(OS(=O)(=O)F)cc3P(C)(C)=O)n1)CNCC2 [Example 39, dihydrochloride]", "MAP4K-1 enzyme (Homo sapiens, UniProt Q92918)", "f"),
    ("COc1cc2c(cc1Nc1ncc(Cl)c(Nc3ccc(OS(=O)(=O)F)cc3P(C)(C)=O)n1)CN(CCF)CC2 [Example 13, dihydrochloride]", "MAP4K-1 enzyme (Homo sapiens, UniProt Q92918)", "f"),
    ("[2H]C([2H])([2H])Oc1cc2c(cc1Nc1ncc(Cl)c(Nc3ccc(OS(=O)(=O)F)cc3P(C)(C)=O)n1)CN(C([2H])([2H])[2H])CC2 [Example 6, dihydrochloride]", "MAP4K-1 enzyme (Homo sapiens, UniProt Q92918)", "f"),
    ("COc1cc2c(cc1Nc1ncc(Cl)c(Nc3ccc(OC4COC4)cc3P(C)(C)=O)n1)CN(C)CC2", "MAP4K-1 enzyme (Homo sapiens, UniProt Q92918)", "t"),
    ("COc1cc2c(cc1Nc1ncc(Cl)c(Nc3ccc(N(C)S(=O)(=O)F)cc3P(C)(C)=O)n1)C(C)N(C)CC2 (racemic) [Example 44, dihydrochloride]", "MAP4K-1 enzyme (Homo sapiens, UniProt Q92918)", "f"),
    ("COc1cc2c(cc1Nc1ncc(Cl)c(Nc3ccc(C(F)(F)F)cc3P(C)(C)=O)n1)CN(C)CC2", "MAP4K-1 enzyme (Homo sapiens, UniProt Q92918)", "t"),
    ("COc1cc2c(cc1Nc1ncc(Cl)c(Nc3cccc(OS(=O)(=O)F)c3P(C)(C)=O)n1)CN(C)CC2 [Example 19, dihydrochloride]", "MAP4K-1 enzyme (Homo sapiens, UniProt Q92918)", "f"),
    ("COc1cc2c(cc1Nc1ncc(Cl)c(Nc3ccc(OS(=O)(=O)F)cc3P(C)(C)=O)n1)CN(C1COC1)CC2 [Example 16, dihydrochloride]", "MAP4K-1 enzyme (Homo sapiens, UniProt Q92918)", "f"),
]

Origin of the recorded values: patent US12577267B2
